Target: CyclinA2/CDK2 (Homo sapiens, UniProt P20248)
Construct: purchased CRELUX Protein Services
Assay: Fluorescence Polarization (FP) competitive binding assay, Cyclin A2/Cdk2;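 further: plates equilibrated two hours at room temperature before polarization reading, IC50 fitted from eight-concentration compound titration curves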
*1 amine or outer side, *2 acyl side, *3 side chain or, on linkers, in order; H or OH if unused. Where a SMILES comes first, the peptide text is derived from it. Bridges are numbered along the chain shown (N, C = ends). [ ]: non-standard residue; d: D form. The star is where a group is joined. NMehhhLys(Me) = CN([C@@H](CCCCCCCN(C)[*:3])C(=O)[*:2])[*:1]; X180 = CN([C@@H](Cc1cc(F)ccc1-c1cnn2c1CCC2)C(=O)[*:2])[*:1]; X188 = CN([C@@H](Cc1cc(Cl)ccc1-c1ccn(C)n1)C(=O)[*:2])[*:1]; X154 = Cc1oncc1-c1ccc(Cl)cc1C[C@@H](C(=O)[*:2])N(C)[*:1]; NMe(hhhLys) = CN([C@@H](CCCCCCCN[*:3])C(=O)[*:2])[*:1]; cBuCO(3,3-F2-1-CF3) = O=C(C1(C(F)(F)F)CC(F)(F)C1)*; Pro(trans-4-F) = O=C(O)[C@@H]1C[C@@H](F)CN1; Gly(cPr) = N[C@H](C(=O)O)C1CC1
PROPERTY_NAME: IC50 (nM)
Number only, in nM; omit the unit.

| MOLECULE | IC50, nM |
| --- | --- |
| Cc1oncc1-c1ccc(Cl)cc1C[C@H]1C(=O)N(C)CCCCCCC[C@H](N(C)C(=O)[C@@H](NC(=O)[C@@H]2C[C@@H](F)CN2C(=O)C2(C(F)(F)F)CC(F)(F)C2)C2CC2)C(=O)N[C@@H](CC(C)C)C(=O)N1C [Example 212] ({cBuCO(3,3-F2-1-CF3)}-[Pro(trans-4-F)][Gly(cPr)][NMehhhLys(Me)]L[X154]; lactam 3-C) | 70 |
| CC(C)C[C@@H]1NC(=O)[C@@H](N(C)C(=O)[C@@H](NC(=O)[C@@H]2C[C@@H](F)CN2C(=O)C2(C(F)(F)F)CC(F)(F)C2)C2CC2)CCCCCCCNC(=O)[C@H](Cc2cc(F)ccc2-c2cnn3c2CCC3)N(C)C1=O [Example 214] ({cBuCO(3,3-F2-1-CF3)}-[Pro(trans-4-F)][Gly(cPr)][NMe(hhhLys)]L[X180]; lactam 3-C) | 50 |

Now look at this one.
Q: What IC50 value was documented for this molecule, CC(C)C[C@@H]1NC(=O)[C@@H](N(C)C(=O)[C@@H](NC(=O)[C@@H]2C[C@@H](F)CN2C(=O)C2(C(F)(F)F)CC(F)(F)C2)C2CC2)CCCCCCCN(C)C(=O)[C@H](Cc2cc(Cl)ccc2-c2ccn(C)n2)N(C)C1=O [Example 205] ({cBuCO(3,3-F2-1-CF3)}-[Pro(trans-4-F)][Gly(cPr)][NMehhhLys(Me)]L[X188]; lactam 3-C) ?
Result: 30

* * *

# reported log10 GI50; entries follow
Tested on: OVCAR3 cells
Test: MTT proliferation assay, OVCAR3;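 further: compound given as an 8- or 10-point series, one day after plating, with exposure covering roughly 3-4 cell doublings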
Format: cell-based
Settings: 5 days compound exposure, 1:3 serial dilution starting at 10 μM
*1 amine or outer side, *2 acyl side, *3 side chain or, on linkers, in order; H or OH if unused. Where a SMILES comes first, the peptide text is derived from it. Bridges are numbered along the chain shown (N, C = ends). [ ]: non-standard residue; d: D form. The star is where a group is joined. X124 = CC(C)C(=O)N1[C@@H]2CC[C@H]1C=C(c1ccc(F)cc1C[C@@H](C(=O)[*:2])N(C)[*:1])C2; NMePhe(5-Cl,2-O(2-Pym)) = CN[C@@H](Cc1cc(Cl)ccc1Oc1ncccn1)C(=O)O; NMe(hhhLys) = CN([C@@H](CCCCCCCN[*:3])C(=O)[*:2])[*:1]; cBuCO(3,3-F2-1-CF3) = O=C(C1(C(F)(F)F)CC(F)(F)C1)*; Pro(trans-4-F) = O=C(O)[C@@H]1C[C@@H](F)CN1; Gly(cPr) = N[C@H](C(=O)O)C1CC1
Please note: log10 values; quantity GI50; unit nM.

| COMPOUND | TARGET_OR_TEST_SYSTEM | log10 GI50 |
| --- | --- | --- |
| CC(C)C[C@@H]1NC(=O)[C@@H](N(C)C(=O)[C@@H](NC(=O)[C@@H]2C[C@@H](F)CN2C(=O)C2(C(F)(F)F)CC(F)(F)C2)C2CC2)CCCCCCCNC(=O)[C@H](Cc2cc(F)ccc2C2=C[C@@H]3CC[C@H](C2)N3C(=O)C(C)C)N(C)C1=O [Example 315] ({cBuCO(3,3-F2-1-CF3)}-[Pro(trans-4-F)][Gly(cPr)][NMe(hhhLys)]L[X124]; lactam 3-C) | OVCAR3 cells | 1.30 |
| CC(C)C[C@@H]1NC(=O)[C@@H](N(C)C(=O)[C@@H](NC(=O)[C@@H]2C[C@@H](F)CN2C(=O)C2(C(F)(F)F)CC(F)(F)C2)C2CC2)CCCCCCCNC(=O)[C@H](Cc2cc(Cl)ccc2Oc2ncccn2)N(C)C1=O [Example 154] ({cBuCO(3,3-F2-1-CF3)}-[Pro(trans-4-F)][Gly(cPr)][NMe(hhhLys)]L[NMePhe(5-Cl,2-O(2-Pym))]; lactam 3-C) | OVCAR3 cells | 1.30 |
| CC(C)C[C@@H]1NC(=O)[C@@H](N(C)C(=O)[C@@H](NC(=O)[C@@H]2C[C@@H](F)CN2C(=O)C2(C(F)(F)F)CC3(CCC3)C2)C2CC2)CC=CCCCCNC(=O)[C@H](Cc2cc(Cl)ccc2Cl)N(C)C1=O (single isomer, unassigned) [Example 16-P1] | OVCAR3 cells | 2.94 |

Now look at this one.
Q: What log10 GI50 value was documented for this compound, CC(=O)N1CC=C(c2ccc(F)cc2C[C@H]2C(=O)N(C)CCCCC=CC[C@H](N(C)C(=O)[C@@H](NC(=O)[C@@H]3C[C@@H](F)CN3C(=O)C3(C(F)(F)F)CCC3)C3CC3)C(=O)N[C@@H](CC(C)C)C(=O)N2C)CC1 [Example 42] ?
Result: 2.32

* * *

Molecular target: CyclinE1/CDK2 (Homo sapiens)
Construct: purchased Eurofins, discovery 14-475
Test: Fluorescence Polarization (FP) competitive binding assay, Cyclin E1/Cdk2;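 further: readings taken after two-hour equilibration at room temperature in HEPES buffer with NaCl, DTT, NP-40 and BSA, IC50 fitted from eight-concentration serial dilution series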
Settings: 10 nM Cyclin E1/Cdk2, 2 nM FAM probe; average of 2-3 independent experiments; read-out: Cyclin E FP IC50
*1 amine or outer side, *2 acyl side, *3 side chain or, on linkers, in order; H or OH if unused. Where a SMILES comes first, the peptide text is derived from it. Bridges are numbered along the chain shown (N, C = ends). [ ]: non-standard residue; d: D form. The star is where a group is joined. NMePhe(2-(4-MorPh),5-Cl) = CN[C@@H](Cc1cc(Cl)ccc1-c1ccc(N2CCOCC2)cc1)C(=O)O; X101 = CN([C@@H](Cc1cc(Cl)ccc1-c1cnn(C2CS(=O)(=O)C2)c1)C(=O)[*:2])[*:1]; NMehhhLys(Me) = CN([C@@H](CCCCCCCN(C)[*:3])C(=O)[*:2])[*:1]; X131 = CN([C@@H](Cc1cc(F)cnc1-c1cnn(C)c1)C(=O)[*:2])[*:1]; X104 = CN([C@@H](Cc1cc(Cl)ccc1C1=CCOCC1)C(=O)[*:2])[*:1]; NMe(hhhLys) = CN([C@@H](CCCCCCCN[*:3])C(=O)[*:2])[*:1]; NMe3Pal(2-OMe,5-Cl) = CN[C@@H](Cc1cc(Cl)cnc1OC)C(=O)O; cBuCO(3,3-F2-1-CF3) = O=C(C1(C(F)(F)F)CC(F)(F)C1)*; NMePhe(2,5-Cl2) = CN[C@@H](Cc1cc(Cl)ccc1Cl)C(=O)O; X182 = N#Cc1ccc(CC[C@H](N[*:1])C(=O)[*:2])cn1; Pro(trans-4-F) = O=C(O)[C@@H]1C[C@@H](F)CN1; Gly(cPr) = N[C@H](C(=O)O)C1CC1; X77 = CC(F)(C(=O)*)C(F)(F)F
# reported IC50; entries follow
Lab note: write values as number then unit, every time.

Worked set:
| MOLECULE | PROPERTY_NAME | MEASURED_RESULT |
| --- | --- | --- |
| CC(C)C[C@@H]1NC(=O)[C@@H](N(C)C(=O)[C@H](C)NC(=O)[C@@H]2C[C@@H](F)CN2C(=O)C2(C(F)(F)F)CC(F)(F)C2)CCCCCCCNC(=O)[C@H](Cc2cc(Cl)ccc2Cl)N(C)C1=O [Example 55] ({cBuCO(3,3-F2-1-CF3)}-[Pro(trans-4-F)]A[NMe(hhhLys)]L[NMePhe(2,5-Cl2)]; lactam 3-C) | IC50 | 3930 nM |
| CC(C)C[C@@H]1NC(=O)[C@@H](N(C)C(=O)[C@@H](NC(=O)[C@@H]2C[C@@H](F)CN2C(=O)C2(C(F)(F)F)CC(F)(F)C2)C2CC2)CCCCCCCN(C)C(=O)[C@H](Cc2cc(Cl)ccc2C2=CCOCC2)N(C)C1=O [Example 51] ({cBuCO(3,3-F2-1-CF3)}-[Pro(trans-4-F)][Gly(cPr)][NMehhhLys(Me)]L[X104]; lactam 3-C) | IC50 | 890 nM |
| Cc1nnc(-c2ccc(Cl)cc2C[C@H]2C(=O)NCCCCC=CC[C@H](N(C)C(=O)[C@@H](NC(=O)[C@@H]3C[C@@H](F)CN3C(=O)C3(C(F)(F)F)CCC3)C3CC3)C(=O)N[C@@H](CC(C)C)C(=O)N2C)o1 (single isomer, unassigned) [Example 117-P2] | IC50 | 160 nM |
| CC(C)C[C@@H]1NC(=O)[C@@H](N(C)C(=O)[C@@H](NC(=O)[C@@H]2C[C@@H](F)CN2C(=O)C2(C(F)(F)F)CC(F)(F)C2)C2CC2)CCCCCCCN(C)C(=O)[C@H](Cc2cc(F)cnc2-c2cnn(C)c2)N(C)C1=O [Example 244] ({cBuCO(3,3-F2-1-CF3)}-[Pro(trans-4-F)][Gly(cPr)][NMehhhLys(Me)]L[X131]; lactam 3-C) | IC50 | 580 nM |
| COc1ncc(Cl)cc1C[C@H]1C(=O)NCCCCCCC[C@H](N(C)C(=O)[C@@H](NC(=O)[C@@H]2C[C@@H](F)CN2C(=O)C2(C(F)(F)F)CC(F)(F)C2)C2CC2)C(=O)N[C@@H](CC(C)C)C(=O)N1C [Example 275] ({cBuCO(3,3-F2-1-CF3)}-[Pro(trans-4-F)][Gly(cPr)][NMe(hhhLys)]L[NMe3Pal(2-OMe,5-Cl)]; lactam 3-C) | IC50 | 230 nM |
| CC(C)C[C@@H]1NC(=O)[C@@H](N(C)C(=O)[C@@H](NC(=O)[C@@H]2C[C@@H](F)CN2C(=O)C2(C(F)(F)F)CC(F)(F)C2)C2CC2)CCCCCCCN(C)C(=O)[C@H](Cc2cc(Cl)ccc2-c2cnn(C3CS(=O)(=O)C3)c2)N(C)C1=O [Example 255] ({cBuCO(3,3-F2-1-CF3)}-[Pro(trans-4-F)][Gly(cPr)][NMehhhLys(Me)]L[X101]; lactam 3-C) | IC50 | 210 nM |

Q: What IC50 value was documented for this molecule, CC(C)C[C@@H]1NC(=O)[C@@H](N(C)C(=O)[C@@H](NC(=O)[C@@H]2C[C@@H](F)CN2C(=O)C2(C(F)(F)F)CC(F)(F)C2)C2CC2)CC=CCCCCNC(=O)[C@H](Cc2cc(Cl)ccc2C2=CCN(S(C)(=O)=O)CC2)N(C)C1=O ?
Result: 5470 nM

Q: What IC50 value was documented for this molecule, CC(C)C[C@@H]1NC(=O)[C@@H](N(C)C(=O)[C@@H](NC(=O)[C@@H]2C[C@@H](F)CN2C(=O)C2(C(F)(F)F)CCC2)C2CC2)CC=CCCCCN(C)C(=O)[C@H](Cc2cc(Cl)ccc2Oc2ncccn2)N(C)C1=O ?
Result: 410 nM

Q: What IC50 value was documented for this molecule, CC(C)C[C@@H]1NC(=O)[C@@H](N(C)C(=O)[C@H](CCC(=O)N(C)C)NC(=O)[C@@H]2C[C@@H](F)CN2C(=O)C2(C(F)(F)F)CC(F)(F)C2)CCCCCCCN(C)C(=O)[C@H](Cc2cc(Cl)ccc2-c2ccc(N3CCOCC3)cc2)N(C)C1=O [Example 419] ({cBuCO(3,3-F2-1-CF3)}-[Pro(trans-4-F)]E(NMe2)[NMehhhLys(Me)]L[NMePhe(2-(4-MorPh),5-Cl)]; lactam 3-C) ?
Result: 540 nM

Q: What IC50 value was documented for this molecule, CC(C)C[C@@H]1NC(=O)[C@@H](N(C)C(=O)[C@@H](NC(=O)[C@@H]2C[C@@H](F)CN2C(=O)C2(C(F)(F)F)CCC2)C2CC2)CC=CCCCCNC(=O)[C@H](Cc2cc(Cl)ccc2-c2cnn(C3COC3)c2)N(C)C1=O ?
Result: 590 nM

Q: What IC50 value was documented for this molecule, CC(C)C[C@@H]1NC(=O)[C@@H](N(C)C(=O)[C@@H](NC(=O)[C@@H]2C[C@@H](F)CN2C(=O)C(C)(F)C(F)(F)F)C2CC2)CCCCCCCN(C)C(=O)[C@H](Cc2cc(Cl)ccc2-c2ccc(N3CCOCC3)cc2)N(C)C1=O (stereo partly drawn) [Example 377] (X77-[Pro(trans-4-F)][Gly(cPr)][NMehhhLys(Me)]L[NMePhe(2-(4-MorPh),5-Cl)]; lactam 3-C) ?
Result: 340 nM

Q: What IC50 value was documented for this molecule, CC(C)C[C@@H]1NC(=O)[C@@H](N(C)C(=O)[C@H](CCc2ccc(C#N)nc2)NC(=O)[C@@H]2C[C@@H](F)CN2C(=O)C2(C(F)(F)F)CC(F)(F)C2)CCCCCCCN(C)C(=O)[C@H](Cc2cc(Cl)ccc2-c2ccc(N3CCOCC3)cc2)N(C)C1=O [Example 416] ({cBuCO(3,3-F2-1-CF3)}-[Pro(trans-4-F)][X182][NMehhhLys(Me)]L[NMePhe(2-(4-MorPh),5-Cl)]; lactam 3-C) ?
Result: 3980 nM
